src = the supplement of paper PMC10307832

System: HCC-78
Assay: relative viability (nuclei count vs DMSO), 5 days (fraction); higher = more cells survive
Conditions: first compound 0.6325 µM
Measured Property: relative viability
The answer should be a number; do not append a unit.

// returns reported relative viability for input Cc1csc(=NC2CCCCC2)n1/N=C/c1ccc(O)c(O)c1O [MIM1] + COc1cc2c(Oc3ccc(NC(=O)C4(C(=O)Nc5ccc(F)cc5)CC4)cc3F)ccnc2cc1OCCCN1CCOCC1 [Foretinib] (partner 0.25 µM)
0.563

// returns reported relative viability for input CN1CCN(CCOc2cc(OC3CCOCC3)c3c(Nc4c(Cl)ccc5c4OCO5)ncnc3c2)CC1 [Saracatinib] + C[C@@H](Oc1cc(-c2cnn(C3CCNCC3)c2)cnc1N)c1c(Cl)ccc(F)c1Cl [Crizotinib] (partner 1 µM)
0.317

// returns reported relative viability for input Cc1csc(=NC2CCCCC2)n1/N=C/c1ccc(O)c(O)c1O [MIM1] + CS(=O)(=O)CCNCc1ccc(-c2ccc3ncnc(Nc4ccc(OCc5cccc(F)c5)c(Cl)c4)c3c2)o1 [Lapatinib] (partner 2 µM)
0.964

// returns reported relative viability for input CN1CCN(CCOc2cc(OC3CCOCC3)c3c(Nc4c(Cl)ccc5c4OCO5)ncnc3c2)CC1 [Saracatinib] + Nc1ncn([C@H]2C[C@H](O)[C@@H](CO)O2)c(=O)n1 [Decitabine] (partner 2 µM)
0.736

---

Test system: HCC-44
Experiment: relative viability (nuclei count vs DMSO), 5 days (fraction); higher = more cells survive
Settings: first compound 0.002 µM
I'd appreciate it if you could supply relative viability values for the items below.
The answer should be a number; do not append a unit.

// returns reported relative viability for input CCNC(=O)c1noc(-c2cc(C(C)C)c(O)cc2O)c1-c1ccc(CN2CCOCC2)cc1 [Luminespib] + Nc1nc2[nH]cc(CCc3ccc(C(=O)N[C@@H](CCC(=O)O)C(=O)O)cc3)c2c(=O)[nH]1 [Pemetrexed] (partner 0.2 µM)
0.613

// returns reported relative viability for input CCNC(=O)c1noc(-c2cc(C(C)C)c(O)cc2O)c1-c1ccc(CN2CCOCC2)cc1 [Luminespib] + CC(=O)c1c(C)c2cnc(Nc3ccc(N4CCNCC4)cn3)nc2n(C2CCCC2)c1=O [Palbociclib] (partner 0.5 µM)
0.942

// returns reported relative viability for input CCNC(=O)c1noc(-c2cc(C(C)C)c(O)cc2O)c1-c1ccc(CN2CCOCC2)cc1 [Luminespib] + CS(=O)(=O)CCNCc1ccc(-c2ccc3ncnc(Nc4ccc(OCc5cccc(F)c5)c(Cl)c4)c3c2)o1 [Lapatinib] (partner 2 µM)
0.975

---

I'd appreciate it if you could supply relative viability values for the items below.
Tested on: NCI-H650
Assay: relative viability (nuclei count vs DMSO), 5 days (fraction); higher = more cells survive
Conditions: first compound 0.01 µM

// returns reported relative viability for input Cc1cn(-c2cc(NC(=O)c3ccc(C)c(Nc4nccc(-c5cccnc5)n4)c3)cc(C(F)(F)F)c2)cn1 [Nilotinib] + CC(=O)c1c(C)c2cnc(Nc3ccc(N4CCNCC4)cn3)nc2n(C2CCCC2)c1=O [Palbociclib] (partner 0.5 µM)
0.336

// returns reported relative viability for input Cc1cn(-c2cc(NC(=O)c3ccc(C)c(Nc4nccc(-c5cccnc5)n4)c3)cc(C(F)(F)F)c2)cn1 [Nilotinib] + C[C@]1(O)C[C@@H](c2nc(-c3ccc4ccc(-c5ccccc5)nc4c3)c3c(N)nccn32)C1 [Linsitinib] (partner 1 µM)
0.925

// returns reported relative viability for input Cc1cn(-c2cc(NC(=O)c3ccc(C)c(Nc4nccc(-c5cccnc5)n4)c3)cc(C(F)(F)F)c2)cn1 [Nilotinib] + Cc1nc(NC(=O)N2CCC[C@H]2C(N)=O)sc1-c1ccnc(C(C)(C)C(F)(F)F)c1 [Alpelisib] (partner 2 µM)
1.4

// returns reported relative viability for input Cc1cn(-c2cc(NC(=O)c3ccc(C)c(Nc4nccc(-c5cccnc5)n4)c3)cc(C(F)(F)F)c2)cn1 [Nilotinib] + Nc1nc2[nH]cc(CCc3ccc(C(=O)N[C@@H](CCC(=O)O)C(=O)O)cc3)c2c(=O)[nH]1 [Pemetrexed] (partner 0.2 µM)
1.12
